# TARGET_OR_TEST_SYSTEM: human 5-HT2A receptor (Homo sapiens, UniProt P28223)
# Construct: expressed in transfected cells
# Sequence (P28223 whole entry): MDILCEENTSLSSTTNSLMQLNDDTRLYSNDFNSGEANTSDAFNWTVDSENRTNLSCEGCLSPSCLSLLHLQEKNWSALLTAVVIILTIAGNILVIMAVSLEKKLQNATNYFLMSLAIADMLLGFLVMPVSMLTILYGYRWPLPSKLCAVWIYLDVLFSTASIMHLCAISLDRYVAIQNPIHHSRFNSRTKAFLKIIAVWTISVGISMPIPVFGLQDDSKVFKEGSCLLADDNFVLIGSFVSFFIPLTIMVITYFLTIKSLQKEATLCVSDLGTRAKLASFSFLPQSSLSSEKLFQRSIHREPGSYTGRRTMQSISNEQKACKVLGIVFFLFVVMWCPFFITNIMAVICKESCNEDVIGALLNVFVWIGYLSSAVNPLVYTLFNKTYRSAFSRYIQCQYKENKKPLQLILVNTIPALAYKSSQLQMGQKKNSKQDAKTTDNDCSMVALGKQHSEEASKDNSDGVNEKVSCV
# ASSAY_DETAILS: biochemical
# Format: binding
OUTCOME_MEASURE: pKi
Kindly note that pKi refers to -log10 of the concentration in mol/L and answer with the value alone.

Record excerpt, results attached:
> print(dat)
                               input.smiles  experimental.result
1               NCCc1c[nH]c2ccc(C(N)=O)cc12                 5.94
2  CN1C[C@@H](NS(=O)(=O)N(C)C)C[C@@H]2c3cccc4c3c(cn4C)C[C@H]21                 7.64
3    CN1CCc2cc(Cl)c(O)cc2[C@@H](c2ccccc2)C1                 7.87

Turning to the following molecule.
Input "FC(F)(F)c1cccc(N2CCNCC2)c1" . Output pKi: 7.06

----------
# TARGET_OR_TEST_SYSTEM: canine 5-HT2A receptor (Canis lupus familiaris, UniProt O46635)
# Sequence (O46635 whole entry): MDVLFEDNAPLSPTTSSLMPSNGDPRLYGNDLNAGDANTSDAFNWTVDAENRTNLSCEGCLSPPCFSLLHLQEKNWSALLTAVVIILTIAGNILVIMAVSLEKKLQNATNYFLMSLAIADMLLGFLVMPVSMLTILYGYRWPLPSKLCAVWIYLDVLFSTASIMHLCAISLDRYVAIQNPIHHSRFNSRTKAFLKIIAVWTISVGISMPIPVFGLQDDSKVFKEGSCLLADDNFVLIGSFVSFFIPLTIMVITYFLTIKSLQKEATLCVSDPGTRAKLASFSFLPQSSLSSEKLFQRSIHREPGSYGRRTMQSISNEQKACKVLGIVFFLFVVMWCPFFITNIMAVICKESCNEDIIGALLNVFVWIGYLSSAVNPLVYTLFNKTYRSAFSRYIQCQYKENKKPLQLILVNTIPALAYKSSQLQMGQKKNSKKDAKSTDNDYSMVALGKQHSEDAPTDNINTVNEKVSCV
# ASSAY_DETAILS: cell-based
# Assay type: cell-based
# Design: The resulting 5-HT2A full length cDNA was cloned into the pCIneo vector; expressed in transfected cells
Measured Kb, listed per entry.
Give the quantity in nM, number only.

> print(dat)
                               input.smiles   u  experimental.result
1  Cc1nc2sccn2c(=O)c1CCN1CCC(=C(c2ccc(F)cc2)c2ccc(F)cc2)CC1  nM                 7.08

For "CN1C[C@@H](NS(=O)(=O)N(C)C)C[C@@H]2c3cccc4c3c(cn4C)C[C@H]21" the compound record lists Kb as 25.1

"O=C(c1ccc(F)cc1)C1CCN(CCn2c(=O)[nH]c3ccccc3c2=O)CC1" yielded Kb of 1.26

----------
# TARGET_OR_TEST_SYSTEM: human 5-HT2A receptor (Homo sapiens, UniProt P28223)
# Construct: expressed in transfected cells
# ASSAY_DETAILS: cell-based
# Format: cell-based
OUTCOME_MEASURE: Rel. eff. h5-HT2A
Lab note: jot down the number only; don't add units.

Examples with their reported Rel. eff. h5-HT2A follow.
> print(dat)
                                   compound  experimental.result
1                FC(F)(F)c1cccc(N2CCNCC2)c1                 0.17
2               NCCc1c[nH]c2ccc(C(N)=O)cc12                 0.70
3  COc1cc(CC(C)N)c(OC)cc1I (stereo not shown)                 0.65

Here's the next entry for you.
Input NCCc1c[nH]c2ccc(O)cc12 [5-HT, 5-hydroxytryptamine] . Output Rel. eff. h5-HT2A: 1
